# Experimental Details: Toxicity in brine shrimp
# Format: organism-based
# Settings: artemia, in vivo
LC50 for assorted molecules
Write it as a number; the unit µg/mL goes unstated.

| Molecule | Value Units | Numeric Readout |
| --- | --- | --- |
| CCCCCCCCCC[C@@H](O)[C@H]1CC[C@H]([C@H](O)CC[C@H](O)[C@@H]2CC[C@@H](CCCCC[C@@H]3CC(CC(C)=O)C(=O)O3)O2)O1 (stereo not given in full) | µg/mL | 3.3 |

# input For the molecule shown here, CCCCCCCCCCCC[C@@H](O)[C@H]1CC[C@H]([C@H](O)CCCCCC(O)CCCCCCC2=C[C@H](C)OC2=O)O1 (stereo not given in full) , give the reported LC50.
# output 8.9

# input Need LC50 of "CCCCCCCCCCCC[C@@H](O)[C@H]1CC[C@H]([C@H](O)CCC[C@@H](O)[C@@H](O)CCCCC[C@@H](O)CC2=C[C@H](C)OC2=O)O1" , thanks.
# output 18.4

# input Form field: reported LC50 of "CCCCCCCCCC[C@H](O)[C@H](O)CCCC[C@H]1CC[C@H]([C@H]2CC[C@H]([C@H](O)CCCCC[C@@H](O)CC3=C[C@H](C)OC3=O)O2)O1"
# output 0.13

# input Look up LC50 for this molecule: "CCCCCCCCCC[C@H](O)[C@H]1CC[C@H]([C@H](O)CC[C@H](O)[C@@H]2CC[C@@H](CCCCC[C@@H](O)CC3=C[C@H](C)OC3=O)O2)O1"
# output 5.8

Sourced from ChEMBL document CHEMBL1141818
